test system: M14 melanoma; assay: NCI tumour cell line growth inhibition, 48 h
Value kind: TGI

INSERT INTO measurements (compound, value_kind, result) VALUES
  ('N#CC(C#N)=CN1CCN(C(=O)c2ccccc2)C1=S', 'TGI', '> 100 µM'),
  ('Cc1cc(N/N=C/c2nc(-c3ccccc3)oc2C)c2cc(Cl)ccc2n1', 'TGI', '3.54 µM'),
  ('COc1ccc(C=NC23CC4CC(CC(C4)C2)C3)cc1', 'TGI', '> 100 µM'),
  ('O[C@]12CCCC[C@H]1CCC2', 'TGI', '> 100 µM'),
  ('CC(=O)OC[C@@H]1[C@H]2CC(=O)O[C@H]2C[C@H]1OC(C)=O', 'TGI', '> 100 µM'),
  ('Cc1ccc(NC(=S)NNC(=O)c2cc(-c3ccccc3)nc3ccccc23)cc1C', 'TGI', '33.8 µM'),
  ('Nc1ccccc1Sc1ccc(Cl)cc1', 'TGI', '> 100 µM'),
  ('Cn1c2ccccc2n2c3ccccc3c(=S)c(C#N)c12', 'TGI', '> 100 µM'),
  ('COC1CC(OS(=O)(=O)c2ccc(C)cc2)C(OS(=O)(=O)c2ccc(C)cc2)C(COS(=O)(=O)c2ccc(C)cc2)O1 (configuration not stated)', 'TGI', '17.8 µM'),
  ('Cn1c(=O)c2[nH]c(COCc3nc4c([nH]3)c(=O)n(C)c(=O)n4C)nc2n(C)c1=O', 'TGI', '> 100 µM'),
  ('CC(=S)NNC(=O)c1ccncc1', 'TGI', '> 100 µM'),
  ('CC(=O)Oc1cccc2c1C(=O)C(Br)(Br)CCC2', 'TGI', '8.67 µM');

The reported numbers originate from PubChem BioAssay (NCI).
